system: A549; conditions: NSCL
OBSERVED PROPERTY: TGI A549 (µM)
Give bare numbers, in µM.

| MOLECULE | READOUT UNIT | TGI A549 |
| --- | --- | --- |
| CCOC1=C(C)C(=O)C2=C(C1=O)C(CNC(=O)C(C)N)N1CC3Cc4cc(C)c(OCC)c(O)c4C(C1C2)N3C (stereo not shown) [Safracin A (OEt)] | µM | 7.17 |
| COc1c(C)cc2c(c1O)C1C3Cc4cc(C)c(OC)c(O)c4C(CNC(=O)C(C)N)N3C(O)C(C2)N1C (stereo not shown) [Safracin P-22B] | µM | 8.83 |
| CCOC1=C(C)C(=O)C2=C(C1=O)C(CNC(=O)C(C)N)N1C(O)C3Cc4cc(C)c(OCC)c(O)c4C(C1C2)N3C (stereo not shown) [Safracin B (OEt)] | µM | 1.16 |

Challenge: Which value of TGI A549 has been reported for COC1=C(C)C(=O)C2=C(C1=O)C(CNC(=O)C(C)N)N1C(O)C3Cc4cc(C)c(OC)c(O)c4C(N3)C1C2 (stereo not shown) [Safracin D] in the records?
Response given: 10.7

----------
Hi there, I'd appreciate the recorded CC50 for every entry that follows.
tested on: PANC1; test: cells; conditions: Homo sapiens, PANC-1, read-out: LC50 PANC1

Examples with their reported CC50 follow.
| MOLECULE | TEST RESULT |
| --- | --- |
| COC1=C(C)C(=O)C2=C(C1=O)C(CNC(=O)C(C)N)N1CC3Cc4cc(C)c(OC)c(O)c4C(N3)C1C2 (stereo not shown) [Safracin E] | > 19.6 µM |
| CCOC1=C(C)C(=O)C2=C(C1=O)C(CNC(=O)C(C)N)N1C(O)C3Cc4cc(C)c(OCC)c(O)c4C(C1C2)N3C (stereo not shown) [Safracin B (OEt)] | 13.5 µM |
| COc1c(C)cc2c(c1O)C1C3Cc4cc(C)c(OC)c(O)c4C(CNC(=O)C(C)N)N3C(O)C(C2)N1C (stereo not shown) [Safracin P-22B] | > 19 µM |

# context switch: different molecule, same CC50
Challenge: # returns recorded CC50 (system: PANC1) for COc1c(C)cc2c(c1O)C1NC(C2)C(O)N2C(CNC(=O)C(C)N)c3c(cc(C)c(OC)c3O)CC12 (stereo not shown) [Safracin P-19B]
Response given: > 19.5 µM

----------
system: HELA; experiment: cells; conditions: Homo sapiens, read-out: GI50 HELA
Entries whose GI50 is below 1 µM take 1; entries at or above 1 µM take 0.

| MOLECULE | TESTED SYSTEM | LABEL VALUE |
| --- | --- | --- |
| COc1c(C)cc2c(c1O)C1C3Cc4cc(C)c(OC)c(O)c4C(CNC(=O)C(C)N)N3CC(C2)N1C (stereo not shown) [Safracin P-22A] | HELA | 0 |
| COC1=C(C)C(=O)C2=C(C1=O)C(CNC(=O)C(C)N)N1CC3Cc4cc(C)c(OC)c(O)c4C(N3)C1C2 (stereo not shown) | HELA | 0 |
| COc1c(C)cc2c(c1O)C1C3Cc4cc(C)c(OC)c(O)c4C(CNC(=O)C(C)N)N3C(O)C(C2)N1C (stereo not shown) [Safracin P-22B] | HELA | 1 |
| COC1=C(C)C(=O)C2=C(C1=O)C(CNC(=O)C(C)N)N1C(O)C3Cc4cc(C)c(OC)c(O)c4C(N3)C1C2 (stereo not shown) | HELA | 0 |

Challenge: A record lists CCOC1=C(C)C(=O)C2=C(C1=O)C(CNC(=O)C(C)N)N1C(O)C3Cc4cc(C)c(OCC)c(O)c4C(C1C2)N3C (stereo not shown) . Is its GI50 below 1 µM?
Response given: 1

Challenge: A record lists COc1c(C)cc2c(c1O)C1NC(C2)C(O)N2C(CNC(=O)C(C)N)c3c(cc(C)c(OC)c3O)CC12 (stereo not shown) [Safracin P-19B] . Is its GI50 below 1 µM?
Response given: 0

----------
# log10 GI50 per entry for K-562
Transform log10 | Measure GI50 | Unit nM

Examples with their reported log10 GI50 follow.
| COMPOUND | log10 GI50 |
| --- | --- |
| COC1=C(C)C(=O)C2=C(C1=O)C(CNC(=O)C(C)N)N1CC3Cc4cc(C)c(OC)c(O)c4C(N3)C1C2 (stereo not shown) | 3.63 |
| COc1c(C)cc2c(c1O)C1C3Cc4cc(C)c(OC)c(O)c4C(CNC(=O)C(C)N)N3CC(C2)N1C (stereo not shown) [Safracin P-22A] | 3.50 |
| CCOC1=C(C)C(=O)C2=C(C1=O)C(CNC(=O)C(C)N)N1C(O)C3Cc4cc(C)c(OCC)c(O)c4C(C1C2)N3C (stereo not shown) | 1.60 |
| COc1c(C)cc2c(c1O)C1NC(C2)C(O)N2C(CNC(=O)C(C)N)c3c(cc(C)c(OC)c3O)CC12 (stereo not shown) [Safracin P-19B] | 3.38 |

For each of the compounds below, note its log10 GI50.
1. CCOC1=C(C)C(=O)C2=C(C1=O)C(CNC(=O)C(C)N)N1CC3Cc4cc(C)c(OCC)c(O)c4C(C1C2)N3C (stereo not shown)
2. COC1=C(C)C(=O)C2=C(C1=O)C(CNC(=O)C(C)N)N1C(O)C3Cc4cc(C)c(OC)c(O)c4C(N3)C1C2 (stereo not shown)
3. COc1c(C)cc2c(c1O)C1C3Cc4cc(C)c(OC)c(O)c4C(CNC(=O)C(C)N)N3C(O)C(C2)N1C (stereo not shown) [Safracin P-22B]

Response given:
2.49
2.78
2.05

----------
system: A549; details: NSCL
OBSERVED PROPERTY: TGI A549

| COMPOUND | TEST RESULT |
| --- | --- |
| COc1c(C)cc2c(c1O)C1NC(C2)C(O)N2C(CNC(=O)C(C)N)c3c(cc(C)c(OC)c3O)CC12 (stereo not drawn) [Safracin P-19B] | >19.5 µM |
| COc1c(C)cc2c(c1O)C1C3Cc4cc(C)c(OC)c(O)c4C(CNC(=O)C(C)N)N3CC(C2)N1C (stereo not drawn) [Safracin P-22A] | >19.6 µM |

# context switch: different compound, same TGI A549
Challenge: Which value of TGI A549 has been reported for COC1=C(C)C(=O)C2=C(C1=O)C(CNC(=O)C(C)N)N1CC3Cc4cc(C)c(OC)c(O)c4C(N3)C1C2 (stereo not drawn) in the records?
Response given: >19.6 µM
